GI50 listing for selected compounds.
tested on: OVCAR-5; assay: Growth inhibition of human OVCAR-5 cells measured after 48 hrs by SRB assay; format: functional
The figure you give is taken to be in nM; do not add the unit.

Sample records with GI50:
1. C[C@]12CC[C@H]3[C@@H](CC[C@H]4C[C@@H](O)CC[C@@]43C=O)[C@@]1(O)CC[C@@H]2c1ccc(=O)oc1 | 5210
2. CCO[C@H]1C=C2CC[C@@H]3[C@H]([C@@H](O)C[C@]4(C)[C@@H](c5ccc(=O)oc5)CC[C@]34O)[C@@]2(C)CC1 | 2030

Field: next compound
Input line: Which value of GI50 has been reported for CCO[C@@H]1C=C2CC[C@@H]3[C@H]([C@@H](O)C[C@]4(C)[C@@H](c5ccc(=O)oc5)CC[C@]34O)[C@@]2(C)CC1 in the records?
Output line: 280
